# Tested on: cardiac sympathetic neurons
# Assay method text: Isolated working rat heart model: neuronal uptake and clearance kinetics
# Description: The radiotracer was infused into the heart for 10 minutes to measure the tracer uptake rate into cardiac sympathetic neurons (Kup, shown in units of ml/min/g tissue wet). Then, the heart was infused with normal heart perfusate to measure the tracer clearance rate from the heart over 2 hours. […]
Each entry below carries its recorded neuronal uptake rate / NET transport rate (Kup).
Metric: neuronal uptake rate / NET transport rate (Kup) (mL/min/g wet)

> print(dat)
                                   compound      unit.tag  measured.number
1  N=C(N)NCCOc1ccc(F)cc1 [4F-PEG, ^11C-4-fluoro-phenoxyethylguanidine]  mL/min/g wet             7.25
2  N=C(N)NCCOc1ccccc1 [PEG, ^11C-phenoxyethylguanidine]  mL/min/g wet             5.37
3  N=[11C](N)NCCOc1ccc(O)c(F)c1 [^11C-3F-PHPEG]  mL/min/g wet             4.26
4  N=[11C](N)NCCOc1ccc(F)c(O)c1 [^11C-4F-MHPEG, ^11C-4-fluoro-meta-phenoxyethylguanidine]  mL/min/g wet             2.66
5  N=C(N)NCCOc1cccc(O)c1 [MHPEG, ^11C-meta-hydroxy-phenoxyethylguanidine]  mL/min/g wet             5.37

====

Each entry below carries its recorded half-life.
# Test system: cardiac sympathetic neurons (NET-mediated neuronal uptake)
# Assay method text: Isolated working rat heart model: neuronal uptake and clearance kinetics
# Measurement setup: isolated working rat heart (perfused, ex vivo), read-out: clearance rate from sympathetic neurons, major half-time (T1/2) (converted)
Metric: half-life (h)

> print(dat)
                                   molecule  measured.number
1  N=C(N)NCCOc1ccccc1 [PEG, ^11C-phenoxyethylguanidine]              5.7
2  N=C(N)NCCOc1ccc(F)cc1 [4F-PEG, ^11C-4-fluoro-phenoxyethylguanidine]              3.5
